# assay.details: Light transmittance at 400 nm of s-BPDA powder, 10 mass % in 2 N aqueous sodium hydroxide
# Assay type: physicochemical
# condition.description: light path 1 cm
Assignment: determine reported light transmittance of obtained s-BPDA powder at 400 nm for the given compounds.
# output: bare number, implied unit %

Measured light transmittance of obtained s-BPDA powder at 400 nm, O=C1OC(=O)c2cc(-c3ccc4c(c3)C(=O)OC4=O)ccc21 [Comparative Example D1, reference compound] : 75

Measured light transmittance of obtained s-BPDA powder at 400 nm, O=C1OC(=O)c2cc(-c3ccc4c(c3)C(=O)OC4=O)ccc21 [Comparative Example D4, reference compound] : 72

Measured light transmittance of obtained s-BPDA powder at 400 nm, O=C1OC(=O)c2cc(-c3ccc4c(c3)C(=O)OC4=O)ccc21 [Comparative Example D5, reference compound] : 3

Measured light transmittance of obtained s-BPDA powder at 400 nm, O=C1OC(=O)c2cc(-c3ccc4c(c3)C(=O)OC4=O)ccc21 [Example D7] : 79

Measured light transmittance of obtained s-BPDA powder at 400 nm, O=C1OC(=O)c2cc(-c3ccc4c(c3)C(=O)OC4=O)ccc21 [Example D8] : 91

Measured light transmittance of obtained s-BPDA powder at 400 nm, O=C1OC(=O)c2cc(-c3ccc4c(c3)C(=O)OC4=O)ccc21 [Example D2] : 81

Measured light transmittance of obtained s-BPDA powder at 400 nm, O=C1OC(=O)c2cc(-c3ccc4c(c3)C(=O)OC4=O)ccc21 [Example D3] : 82

Measured light transmittance of obtained s-BPDA powder at 400 nm, O=C1OC(=O)c2cc(-c3ccc4c(c3)C(=O)OC4=O)ccc21 [Example D1] : 81

---

Assignment: determine reported Solubility of used solvent at 25° C. for the given compounds.
# assay.details: Solubility of s-BPDA at 25° C. in solvent
# condition.description: s-BPDA in the solvent used in the example
# output: bare number, implied unit g/100 g

Measured Solubility of used solvent at 25° C., O=C1OC(=O)c2cc(-c3ccc4c(c3)C(=O)OC4=O)ccc21 [Example D5] : 0.1

Measured Solubility of used solvent at 25° C., O=C1OC(=O)c2cc(-c3ccc4c(c3)C(=O)OC4=O)ccc21 [Example D3] : 2.3

Measured Solubility of used solvent at 25° C., O=C1OC(=O)c2cc(-c3ccc4c(c3)C(=O)OC4=O)ccc21 [Example D7] : 0.3

Measured Solubility of used solvent at 25° C., O=C1OC(=O)c2cc(-c3ccc4c(c3)C(=O)OC4=O)ccc21 [Example D1] : 1.3

Measured Solubility of used solvent at 25° C., O=C1OC(=O)c2cc(-c3ccc4c(c3)C(=O)OC4=O)ccc21 [Example D6] : 0.4

---

# assay.details: Light transmittance at 400 nm of i-BPDA powder, 10 mass % in 2 N aqueous sodium hydroxide
# Type: physicochemical
# condition.description: light path 1 cm
measurement.type: Light Transmittance at 400 nm (i-BPDA)
Answer with the value and then the unit.

Measured Light Transmittance at 400 nm (i-BPDA), O=C1OC(=O)c2c1cccc2-c1cccc2c1C(=O)OC2=O [Comparative Example F1, reference compound] : 79%

Measured Light Transmittance at 400 nm (i-BPDA), O=C1OC(=O)c2c1cccc2-c1cccc2c1C(=O)OC2=O [Comparative Example F2, reference compound] : 79%

Measured Light Transmittance at 400 nm (i-BPDA), O=C1OC(=O)c2c1cccc2-c1cccc2c1C(=O)OC2=O [Example F2] : 92%

Measured Light Transmittance at 400 nm (i-BPDA), O=C1OC(=O)c2c1cccc2-c1cccc2c1C(=O)OC2=O [Example F3] : 93%

Measured Light Transmittance at 400 nm (i-BPDA), O=C1OC(=O)c2c1cccc2-c1cccc2c1C(=O)OC2=O [Example F5] : 91%
